# tested-system: r-V25M rURAT1 point mutant (Rattus norvegicus, UniProt Q3ZAV1, V25M)
# Construct: expressed in transfected cells; host or cells: HEK-293T
# Sequence (Q3ZAV1 whole entry V25M): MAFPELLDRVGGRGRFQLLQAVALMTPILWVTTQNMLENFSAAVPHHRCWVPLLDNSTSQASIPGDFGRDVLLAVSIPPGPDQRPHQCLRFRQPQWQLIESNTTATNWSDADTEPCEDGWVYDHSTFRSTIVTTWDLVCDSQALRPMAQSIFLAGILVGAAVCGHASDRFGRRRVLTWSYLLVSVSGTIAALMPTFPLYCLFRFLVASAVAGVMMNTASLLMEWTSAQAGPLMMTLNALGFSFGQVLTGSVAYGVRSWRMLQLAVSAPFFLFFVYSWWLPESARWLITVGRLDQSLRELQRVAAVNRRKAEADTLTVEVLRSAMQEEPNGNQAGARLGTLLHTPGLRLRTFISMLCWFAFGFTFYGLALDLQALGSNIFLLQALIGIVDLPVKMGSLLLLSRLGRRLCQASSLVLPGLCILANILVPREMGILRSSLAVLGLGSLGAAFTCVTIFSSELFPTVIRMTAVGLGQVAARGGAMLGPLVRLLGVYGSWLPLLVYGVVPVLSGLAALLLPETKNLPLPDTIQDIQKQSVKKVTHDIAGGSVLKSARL
# test-protocol: URAT1 uric acid transport activity assay
# Assay type: cell-based
# Description: hURAT1 (GenBank BC053348.1) and rURAT1 (NCBI NM_001034943.1) genes were purchased from Origene Technologies, Inc. and subcloned into pCMV6/neo using NotI, creating pCMV6/neo-hURAT1 and pCMV6/neo-rURAT1. […] Compounds were serially diluted into assay buffer and added to the cells for 5 minutes prior to addition of radiolabelled uric acid substrate. […] Each treatment was measured in triplicate. […]
recorded-endpoint: pIC50
// field semantics: pIC50 = negative decimal log of concentration (mol/L)

Exam item: Look up pIC50 of "CCc1oc2ccccc2c1C(=O)c1cc(Br)c(O)c(Br)c1" and report it.
Marked response: 4.96

The reported numbers originate from paper PMC5054527.
